targetEntity: JAK3 (Homo sapiens (Human), UniProt P52333)
Sequence (P52333 822-1111): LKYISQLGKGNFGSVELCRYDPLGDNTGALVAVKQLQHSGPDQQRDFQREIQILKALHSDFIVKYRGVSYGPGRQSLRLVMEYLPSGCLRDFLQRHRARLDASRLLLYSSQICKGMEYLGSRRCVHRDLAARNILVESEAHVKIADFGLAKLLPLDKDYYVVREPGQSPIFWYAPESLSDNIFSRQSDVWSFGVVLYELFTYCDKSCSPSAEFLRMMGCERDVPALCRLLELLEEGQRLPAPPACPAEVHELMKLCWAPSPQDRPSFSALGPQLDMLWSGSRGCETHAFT
assayText: Jak Biochemical HTRF Assay (JAK3)
details: recombinant GST-tagged catalytic domain, [ATP] 2.9 μM
parameter: IC50 (nM)

A selection of reference data follows.
                                   compound  readoutvalue
0  C=C(C)C(=O)Nc1cccc(-c2ncnc3[nH]cc(C4CCOCC4)c23)c1 [Example 23]           8.3
1  C=CS(=O)(=O)Nc1cccc(-c2ncnc3[nH]cc(C(=O)OCC)c23)c1 [Example 10-1]         0.037
2  C=C(F)C(=O)Nc1cc(-c2ncnc3[nH]cc(C(=O)OCC)c23)ccc1F [Example 5-10]         0.013
3  C=C(C)C(=O)Nc1cc(-c2ncnc3[nH]cc(C(=O)OCC)c23)ccc1CN(C)C [Example 4-30]           1.5

A. COc1ccc(F)cc1-c1c[nH]c2ncnc(-c3ccccc3)c12 [Example 33-3]
B. CCOC(=O)c1c[nH]c2ncnc(-c3cccc(NC(=O)/C=C/c4nccs4)c3)c12 [Example 5-39]
Out of A and B , name the one with the higher IC50. Answer by stating the label of the chosen item.
B

a. C/C=C/S(=O)(=O)Nc1cccc(-c2ncnc3[nH]cc(C(=O)OCC)c23)c1 [Example 10-2]
b. C=C(C)C(=O)Nc1cccc(-c2ncnc3[nH]cc(C(=O)OCC)c23)c1 [Example 4-1]
Record comparison, field IC50: mark the lower of a and b . Answer by stating the label of the chosen item.
b

###

targetEntity: JAK2 (Homo sapiens (Human))
assayText: Jak Biochemical HTRF Assay (JAK2)
details: recombinant GST-tagged catalytic domain, [ATP] 8.5 μM; given as range class
pIC50: −log10 of the molar value.
parameter: pIC50

A selection of reference data follows.
                                  smilesstr  parameter  readoutvalue
0  CCOC(=O)c1c[nH]c2ncnc(-c3cccc(C(C)(C)O)c3)c12      pIC50        < 6.30
1  CCOC(=O)c1c[nH]c2ncnc(C3=CCN(C(=O)OC(C)(C)C)C3)c12      pIC50        < 6.30
2        CCOC(=O)c1c[nH]c2ncnc(-c3ccsc3)c12      pIC50  6.30 to 8.00
3  CCOC(=O)c1c[nH]c2ncnc(-c3ccc(C(C)(C)O)cc3)c12      pIC50  6.30 to 8.00
4  CCOC(=O)c1c[nH]c2ncnc(-c3ccc(C(=O)N(C)C)cc3)c12      pIC50        < 6.30

Give the measured pIC50 of `CCOC(=O)c1c[nH]c2ncnc(-c3cccc(NC(=O)/C=C/c4ccc(C(F)(F)F)cc4)c3)c12` .
< 6.30

Next compound: `CCOC(=O)c1c[nH]c2ncnc(-c3cccc(Nc4ncnc(C#N)n4)c3)c12`
6.30 to 8.00

Next compound: `CCOC(=O)c1c[nH]c2ncnc(-c3ccc(CC#N)nc3)c12`
< 6.30

###

targetEntity: JAK2 (Homo sapiens (Human), UniProt O60674)
Sequence (O60674 849-1124): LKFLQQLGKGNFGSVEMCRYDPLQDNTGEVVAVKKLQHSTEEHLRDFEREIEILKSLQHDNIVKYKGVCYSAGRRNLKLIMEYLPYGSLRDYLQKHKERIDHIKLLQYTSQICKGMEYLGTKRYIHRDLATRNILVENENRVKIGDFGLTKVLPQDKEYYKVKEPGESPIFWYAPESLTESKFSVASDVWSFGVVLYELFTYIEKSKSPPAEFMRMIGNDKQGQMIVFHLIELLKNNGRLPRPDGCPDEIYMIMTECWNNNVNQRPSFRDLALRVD
assayText: Jak Biochemical HTRF Assay (JAK2)
details: recombinant GST-tagged catalytic domain, [ATP] 8.5 μM; given as range class
pIC50: −log10 of the molar value.
Listing of recorded pIC50 by entry.

Give the measured pIC50 of CCOC(=O)c1c[nH]c2ncnc(-c3ccc(CO)nc3)c12 [Example 1-58] .
< 6.30

Next compound: CCOC(=O)c1c[nH]c2ncnc(-c3cccc(NCC(F)(F)F)c3)c12 [Example 3-1]
< 6.30

Next compound: CCOC(=O)c1c[nH]c2ncnc(-c3ccn[nH]3)c12 [Example 1-81]
< 6.30

Next compound: CCOC(=O)c1c[nH]c2ncnc(-c3cccc(OC(F)F)c3)c12 [Example 1-59]
6.30 to 8.00

Origin of measurements: patent US8993756B2
